Tested on: Leishmania major
protocol_notes: Antileishmanial activity against promastigote form of Leishmania major Freidlin assessed as reduction in parasite growth incubated for 72 hrs by alamar blue dye based fluorescence analysis
Format: functional, organism-based
test_readout: pEC50
Numbers only, as −log10 of the molar value.

# annotated cases, reported pEC50 shown
>  <sample_smiles>
COC(=O)[C@@H]1CCCN1C(=O)[C@H](C)CSC

>  <test_readout>
pEC50

>  <measured>
5.28

$$$$
>  <sample_smiles>
COC(=O)[C@@H]1CCCN1C(=O)[C@H](C)CSCc1ccccc1

>  <test_readout>
pEC50

>  <measured>
5.06

$$$$
>  <sample_smiles>
CC(C)(C)C(=O)N1CCC[C@H]1C(=O)O

>  <test_readout>
pEC50

>  <measured>
4.69

$$$$
>  <sample_smiles>
COC(=O)[C@H]1CCCN1C(=O)C(C)(C)C

>  <test_readout>
pEC50

>  <measured>
4.40

$$$$
>  <sample_smiles>
O=C(O)[C@@H]1CCCN1C(=O)CCSCc1ccccc1

>  <test_readout>
pEC50

>  <measured>
5.50

$$$$

Quick one: give me pEC50 for each item below, same order please.
1. O=C(O)[C@H]1CCCN1C(=O)CCSCc1ccccc1
2. COC(=O)[C@H]1CCCN1C(=O)CCSC
3. COC(=O)[C@@H]1CCCN1C(=O)Cc1ccccc1
4. CCCCCCCCCCCCCCCCOP(=O)([O-])OCC[N+](C)(C)C
5. COC(=O)[C@H]1CCCN1C(=O)CC(C)C
6. COC(=O)[C@H]1CCCN1C(=O)CCSCc1ccccc1
7. COC(=O)[C@@H]1CCCN1C(=O)CCSCc1ccccc1

Response given:
1: 4.40; 2: 5.51; 3: 4.91; 4: 5.27; 5: 5.69; 6: 4.45; 7: 5.91

I need pEC50 for every entry listed below, if you could help.
1. COC(=O)[C@@H]1CCCN1C(=O)C(C)(C)C
2. CC(C)C(=O)N1CCC[C@@H]1C(=O)O
3. CSC[C@@H](C)C(=O)N1CCC[C@H]1C(=O)O
4. CC(C)C(=O)N1CCC[C@H]1C(=O)O
5. C[C@H](CSCc1ccccc1)C(=O)N1CCC[C@H]1C(=O)O
6. COC(=O)[C@@H]1CCCN1C(=O)CCS
7. COC(=O)[C@H]1CCCN1C(=O)C(C)C
8. O=C(O)[C@H]1CCCN1C(=O)CCS

Response given:
4.84
5.39
4.94
5.26
4.77
5.15
5.48
5.22
